# measured.target: Recombinant human his-tagged IGF 1R extracellular domain protein (human) (UniProt P08069)
# assay.name: SPR, captured IgG, IGF-1R ECD-his analyte, dissociation pH 6
quantity: koff (s⁻¹)
Lab book: enter the figure in s⁻¹, no units written.

[Q] For VRDN-02531 (antibody, V domains shown) VH: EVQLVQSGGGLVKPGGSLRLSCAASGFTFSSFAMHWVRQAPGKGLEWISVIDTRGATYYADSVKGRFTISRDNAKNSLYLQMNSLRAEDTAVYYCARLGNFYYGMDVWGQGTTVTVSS VL: EIVLTQSPGTLSVSPGERATLSCRASHSIGSSLHWYQQKPGQAPRLLIKYASQSLSGIPDRFSGSGSGTDFTLTISRLEPEDFAVYYCHQSSRLPHTFGQGTKVEIK , what is its reported koff?
[A] 1e-06

[Q] Please give the result for VRDN-02550 (antibody, V domains shown) VH: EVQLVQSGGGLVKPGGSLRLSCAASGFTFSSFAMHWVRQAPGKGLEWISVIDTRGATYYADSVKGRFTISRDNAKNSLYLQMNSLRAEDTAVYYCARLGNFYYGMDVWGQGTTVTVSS VL: EIVLTQSPGTLSVSPGERATLSCRASQSIGSSLHWYQQKPGQAPRLLIKYASQSLSGIPDRFSGSGSGTDFTLTISRLEPEDFAVYYCHQSSRHPHTFGQGTKVEIK too.
[A] 1e-06
